Origin of measurements: ChEMBL document CHEMBL3243918

Organism: Cavia porcellus
METHOD_NOTES: Antagonist activity at guinea pig atrial beta adrenergic receptor assessed as isometric contractions at 5 x 10^-5 M by force displacement transducer
Type: tissue-based
CONDITION_PARAMETERS: Cardiac atrium
The source made the active and inactive calls. The rule behind the calls is not given here.
OBSERVABLE: Activity

molecule="N=C(N)NCC(O)c1ccc2c(c1)OCO2 (configuration not stated)" observed_measurement=inactive
molecule=NNc1nncc2ccccc12 observed_measurement=inactive
molecule=N=C(N)NCCc1ccc2c(c1)OCO2 observed_measurement=inactive
molecule="OC(CNC1=NCCN1)c1ccc2c(c1)OCO2 (configuration not stated)" observed_measurement=inactive
molecule="CC(C)NC(C)C(O)c1ccc2c(c1)OCO2.Cl (configuration not stated)" observed_measurement=inactive
molecule=c1cc2c(cc1CCNC1=NCCN1)OCO2 observed_measurement=inactive
molecule="CC(C)NCC(O)/C=C/c1ccc2c(c1)OCO2 (configuration not stated)" observed_measurement=inactive
